METHOD_SUMMARY: Half-life in rat plasma
Type: ADME, organism-based
Please provide measured half-life for the entries that follow.
Give the number; h is assumed, so skip it.

Query :: // lookup half-life for CN[C@H](CC(C)C)C(=O)N[C@H]1C(=O)N[C@@H](CC(N)=O)C(=O)N[C@H]2C(=O)N[C@H]3C(=O)N[C@H](C(=O)N[C@H](C(=O)O)c4cc(O)cc(O)c4-c4cc3ccc4O)[C@H](O)c3ccc(c(Cl)c3)Oc3cc2cc(c3OC2OC(CO)C(O)C(O)C2OC2CC(C)(NC(=O)OCc3cc(C)c(OC(=O)C(C)NC(=O)COCCO)c(C)c3)C(O)C(C)O2)Oc2ccc(cc2Cl)[C@H]1O (stereo not given in full)
Result :: 16

Query :: // lookup half-life for CN[C@H](CC(C)C)C(=O)N[C@H]1C(=O)N[C@@H](CC(N)=O)C(=O)N[C@H]2C(=O)N[C@H]3C(=O)N[C@H](C(=O)N[C@H](C(=O)O)c4cc(O)cc(O)c4-c4cc3ccc4O)[C@H](O)c3ccc(c(Cl)c3)Oc3cc2cc(c3OC2OC(CO)C(O)C(O)C2OC2CC(C)(NC(=O)OCc3cc(C)c(OC(=O)CNC(=O)COCCO)c(C)c3)C(O)C(C)O2)Oc2ccc(cc2Cl)[C@H]1O (stereo not given in full)
Result :: 19

Query :: // lookup half-life for CN[C@H](CC(C)C)C(=O)N[C@H]1C(=O)N[C@@H](CC(N)=O)C(=O)N[C@H]2C(=O)N[C@H]3C(=O)N[C@H](C(=O)N[C@H](C(=O)O)c4cc(O)cc(O)c4-c4cc3ccc4O)[C@H](O)c3ccc(c(Cl)c3)Oc3cc2cc(c3OC2OC(CO)C(O)C(O)C2OC2CC(C)(NC(=O)OCc3cc(C)c(OC(=O)COCCO)c(C)c3)C(O)C(C)O2)Oc2ccc(cc2Cl)[C@H]1O (stereo not given in full)
Result :: 2

# credit: ChEMBL document CHEMBL1145985
